Reported pIC50 values, JMJD2C (Homo sapiens, UniProt Q9H3R0).
pIC50: −log10 of the molar value.

{"MOLECULE": "Oc1nc(OCc2cccc(-c3ccccc3)c2)nc2cnccc12 [Example 186]", "VALUE MEASURED": "6.00 to 7.00"}
{"MOLECULE": "COCCOc1nc(O)c2ccncc2n1 [Example 22]", "VALUE MEASURED": "6.00 to 7.00"}
{"MOLECULE": "Cn1ccc(COc2nc(O)c3ccncc3n2)n1 [Example 33]", "VALUE MEASURED": "≥ 7.00"}
{"MOLECULE": "Cn1cnc(-c2nccc3c(=O)[nH]cnc23)c1 [Example 198]", "VALUE MEASURED": "6.00 to 7.00"}

Next molecule, please.
Field pIC50 (JMJD2C (Homo sapiens, UniProt Q9H3R0)), entry Oc1nc(Oc2cnn([C@@H]3CCCN(c4ccc(F)cc4)C3)c2)nc2cnccc12 [Example 159] : ≥ 7.00

* * *

// UniProt:Q9H3R0 IC50 records

Here are 4 molecules together with their reported answers.
{"MOLECULE": "CCCc1cccc(Oc2nc(O)c3ccncc3n2)c1 [Example 58]", "IC50": "100 to 1000 nM"}
{"MOLECULE": "N#Cc1cccc(COc2nc(O)c3ccncc3n2)c1 [Example 32]", "IC50": "100 to 1000 nM"}
{"MOLECULE": "Oc1nc(OCc2cccc(F)c2)nc2cnccc12 [Example 179]", "IC50": "≤ 100 nM"}
{"MOLECULE": "Oc1nc(OCC2CCc3ccccc3C2)nc2cnccc12 (stereo not shown) [Example 191]", "IC50": "≤ 100 nM"}

Oc1nc(Oc2ccc(Cl)cc2)nc2cnccc12 [Example 49] tested on UniProt:Q9H3R0 gave IC50: ≤ 100 nM

Entry Oc1nc(OCc2ccccc2Cl)nc2cnccc12 [Example 171] , UniProt:Q9H3R0 data, IC50 value: ≤ 100 nM

IC50 for UniProt:Q9H3R0 with input CCC(C)COc1nc(O)c2ccncc2n1 (stereo not shown) [Example 16] equals 100 to 1000 nM

Note to self: IC50 of CC(C)n1cc(Oc2nc3cnccc3c(=O)[nH]2)cn1 [Example 63] with UniProt:Q9H3R0 was 100 to 1000 nM

Entry O=S(=O)(C1CC1)N1CC[C@H](n2cc(Oc3nc(O)c4ccncc4n3)cn2)C1 [Example 137] : IC50 on UniProt:Q9H3R0 = ≤ 100 nM

UniProt:Q9H3R0 assay, molecule Oc1nc(Oc2cnn([C@@H]3CCN(Cc4ccccc4)C3)c2)nc2cnccc12 [Example 133] , recorded IC50 = ≤ 100 nM

* * *

Target sequence: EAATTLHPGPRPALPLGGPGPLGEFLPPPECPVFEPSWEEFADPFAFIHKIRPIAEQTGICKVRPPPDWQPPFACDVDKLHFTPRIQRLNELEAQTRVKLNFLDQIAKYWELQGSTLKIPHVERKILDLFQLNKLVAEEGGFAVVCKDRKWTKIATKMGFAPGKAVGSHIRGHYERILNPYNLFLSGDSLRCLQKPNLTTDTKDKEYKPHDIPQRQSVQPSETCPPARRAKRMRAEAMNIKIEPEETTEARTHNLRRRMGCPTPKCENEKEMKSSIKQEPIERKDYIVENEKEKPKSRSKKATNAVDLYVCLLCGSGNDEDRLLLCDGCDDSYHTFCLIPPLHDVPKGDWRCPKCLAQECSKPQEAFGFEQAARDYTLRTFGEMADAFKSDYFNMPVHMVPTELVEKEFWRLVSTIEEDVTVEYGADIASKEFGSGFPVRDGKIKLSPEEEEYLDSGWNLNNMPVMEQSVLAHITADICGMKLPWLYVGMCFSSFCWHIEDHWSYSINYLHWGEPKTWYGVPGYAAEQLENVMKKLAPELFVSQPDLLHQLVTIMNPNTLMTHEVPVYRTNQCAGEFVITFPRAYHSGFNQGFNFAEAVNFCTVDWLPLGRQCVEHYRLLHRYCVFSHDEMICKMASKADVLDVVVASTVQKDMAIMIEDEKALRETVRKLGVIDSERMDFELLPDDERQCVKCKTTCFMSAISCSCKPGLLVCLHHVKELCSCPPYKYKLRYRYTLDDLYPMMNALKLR
pIC50: −log10 of the molar value.
VALUE TYPE: pIC50

Worked examples follow.
{"COMPOUND": "CC(C)(C)OC(=O)Nc1cccc(Oc2nc(O)c3ccncc3n2)c1", "VALUE MEASURED": "≥ 7.00"}
{"COMPOUND": "Oc1nc(OCc2c(F)cccc2F)nc2cnccc12", "VALUE MEASURED": "5.00 to 6.00"}
{"COMPOUND": "O=C(C1CC1)N1CC[C@H](n2cc(Oc3nc(O)c4ccncc4n3)cn2)C1", "VALUE MEASURED": "≥ 7.00"}
{"COMPOUND": "Oc1nc(Oc2cccc(Cl)c2)nc2cnccc12", "VALUE MEASURED": "≥ 7.00"}
{"COMPOUND": "Cn1cnc(-c2nccc3c(O)nc(Oc4cnn(Cc5ccccc5)c4)nc23)c1", "VALUE MEASURED": "≥ 7.00"}
{"COMPOUND": "Cn1cnc(-c2nccc3c(O)nc(O[C@@H](c4ccccc4)C(F)(F)F)nc23)c1", "VALUE MEASURED": "5.00 to 6.00"}
{"COMPOUND": "Oc1nc(OCc2cccc(F)c2)nc2cnccc12", "VALUE MEASURED": "5.00 to 6.00"}
{"COMPOUND": "Oc1nc(Oc2cnn([C@@H]3CCN(c4ccc(F)cc4)C3)c2)nc2cnccc12", "VALUE MEASURED": "≥ 7.00"}
{"COMPOUND": "CC(=O)N1CC[C@H](n2cc(Oc3nc(O)c4ccncc4n3)cn2)C1", "VALUE MEASURED": "≥ 7.00"}
{"COMPOUND": "O=S(=O)(c1ccccc1)N1CCC[C@@H](n2cc(Oc3nc(O)c4ccncc4n3)cn2)C1", "VALUE MEASURED": "≥ 7.00"}

Reported pIC50 of COc1cccc(Oc2nc(O)c3ccncc3n2)c1 : ≥ 7.00

The compound listed as Oc1nc(OCCc2ccc(Cl)cc2)nc2cnccc12 has a reported pIC50 of ≥ 7.00

For record CC(C)COc1nc(O)c2ccncc2n1 the listed pIC50 is 6.00 to 7.00

Memo: Cn1cnc(-c2nccc3c(O)nc(OCc4ccccc4)nc23)c1 , reported pIC50: ≥ 7.00

// pIC50 value for CCC(C)Oc1nc(O)c2ccncc2n1 (stereo not shown) : 5.00 to 6.00
